Attribution: patent US20200247800A1

targetDesc: human NOX4 (Homo sapiens, UniProt Q9NPH5)
Construct: expressed in transfected cells; membrane fraction used
Sequence (Q9NPH5 whole entry): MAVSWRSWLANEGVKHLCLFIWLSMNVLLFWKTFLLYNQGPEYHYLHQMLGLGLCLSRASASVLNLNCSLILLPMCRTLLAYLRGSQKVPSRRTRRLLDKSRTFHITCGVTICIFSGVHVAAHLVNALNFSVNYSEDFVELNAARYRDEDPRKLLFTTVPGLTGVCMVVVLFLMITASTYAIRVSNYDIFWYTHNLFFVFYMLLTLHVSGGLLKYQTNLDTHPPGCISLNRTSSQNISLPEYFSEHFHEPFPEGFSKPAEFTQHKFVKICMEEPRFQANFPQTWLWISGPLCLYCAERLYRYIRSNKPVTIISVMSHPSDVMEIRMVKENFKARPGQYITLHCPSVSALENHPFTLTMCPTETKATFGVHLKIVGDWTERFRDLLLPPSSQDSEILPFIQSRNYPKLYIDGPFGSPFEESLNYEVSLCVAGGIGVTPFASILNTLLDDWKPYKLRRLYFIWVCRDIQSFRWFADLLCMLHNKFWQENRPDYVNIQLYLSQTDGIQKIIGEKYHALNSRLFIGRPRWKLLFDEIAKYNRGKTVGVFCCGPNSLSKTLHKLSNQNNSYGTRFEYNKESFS
Sequence (P13498 whole entry partner): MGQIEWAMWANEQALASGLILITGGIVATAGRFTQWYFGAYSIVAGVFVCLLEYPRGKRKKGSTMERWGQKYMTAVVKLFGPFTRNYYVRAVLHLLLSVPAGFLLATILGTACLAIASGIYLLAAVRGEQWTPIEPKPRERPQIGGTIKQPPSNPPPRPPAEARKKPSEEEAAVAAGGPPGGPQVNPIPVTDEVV
assayExplanation: Cell free membrane based in vitro NOX4 assay: H2O2 production by membranes expressing human NOX4, measured with Amplex Red
Format: biochemical
conditionSet: 10.0 μM compound, read-out: Percentage inhibition at 10.0 μM
observationType: inhibition at 10 µM (%)

Example entries and their recorded answers appear below.
Give the measured inhibition at 10 µM of Cc1nn(-c2ccc(F)c(F)c2)c2[nH]c(-c3ccccc3Cl)c(O)c(=O)c12 .
100

Give the measured inhibition at 10 µM of Cc1nn(CCN2CCOCC2)c2[nH]c(-c3ccccc3C(F)(F)F)c(O)c(=O)c12 .
89.9

Give the measured inhibition at 10 µM of O=c1c(O)c(-c2ccccc2Cl)[nH]c2c1c(C(F)(F)F)nn2C1CCOCC1 .
98.5

A = Cc1nn(-c2cccc(F)c2)c2[nH]c(-c3c(F)cccc3F)c(O)c(=O)c12
B = CC(C)c1c2c(=O)c(O)c(-c3ccccc3Cl)[nH]c2nn1C
Please compare: A and B . Report which one has the smaller inhibition at 10 µM value. Identify your pick by its label.
B
